# Test system: Staphylococcus sp.
# measurementNotes: Antibacterial activity against methicillin-resistant coagulase-negative Staphylococcus sp. assessed as percent resistant isolates by CLSI dilution method
# Assay type: functional
Each item that follows carries a reported Activity.
Report the figure in % without appending any unit label.

* CN[C@H](CC(C)C)C(=O)N[C@H]1C(=O)N[C@@H](CC(N)=O)C(=O)N[C@H]2C(=O)N[C@H]3C(=O)N[C@H](C(=O)N[C@H](C(=O)O)c4cc(O)cc(O)c4-c4cc3ccc4O)[C@H](O)c3ccc(c(Cl)c3)Oc3cc2cc(c3O[C@@H]2O[C@H](CO)[C@@H](O)[C@H](O)[C@H]2O[C@H]2C[C@](C)(N)[C@H](O)[C@H](C)O2)Oc2ccc(cc2Cl)[C@H]1O [VANCOMYCIN] | 0
* CN(C)[C@@H]1C(O)=C(C(N)=O)C(=O)[C@@]2(O)C(O)=C3C(=O)c4c(O)cccc4[C@@](C)(O)[C@H]3C[C@@H]12 [TETRACYCLINE] | 31

// moving on: another record for Activity
In: Record request: Activity value, item CC[C@H]1OC(=O)[C@H](C)[C@@H](O[C@H]2C[C@@](C)(OC)[C@@H](O)[C@H](C)O2)[C@H](C)[C@@H](O[C@@H]2O[C@H](C)C[C@H](N(C)C)[C@H]2O)[C@](C)(O)C[C@@H](C)C(=O)[C@H](C)[C@@H](O)[C@]1(C)O [ERYTHROMYCIN]
Out: 80
